Please provide measured human liver microsome (HLM, % parent remaining) for the entries that follow.
- method-notes: Liver microsome stability, human
- Assay type: in vitro ADME
- experimental-setup: after 30 min
- Excerpt: Metabolic stability assays are designed to measure the stability of a test compound in a variety of assay matrices from human and animal species. From a metabolism perspective, a drug would be relatively stable, have a small first-pass effect, and maintain an effective concentration in blood for a reasonable period of time. […]
Give the number; % parent remaining is assumed, so skip it.

Note to self: human liver microsome (HLM, % parent remaining) recorded for Cn1nc(C(=O)NC2CCNCC2)c2ccc(N3CCCCCC3)nc21.O=C(O)C(F)(F)F.O=C(O)C(F)(F)F was 109

Note to self: human liver microsome (HLM, % parent remaining) recorded for CC(C)N1CCC(NC(=O)c2nn(C)c3nc(N4CCCCCC4)ccc23)CC1 was 63

Note to self: human liver microsome (HLM, % parent remaining) recorded for CCN1CCC(NC(=O)c2nn(C)c3nc(N4CCCCCC4)ccc23)CC1 [compound 1595] was 45

Note to self: human liver microsome (HLM, % parent remaining) recorded for CC1CCC(C)N1CCOCc1nn(C)c2nc(N3CCCCCC3)ccc12 (centres unmarked) was 9

Note to self: human liver microsome (HLM, % parent remaining) recorded for Cn1nc(C(=O)NC2CCN(CCN3CCCCC3)CC2)c2ccc(N3CCCCCC3)nc21 [EBP1047] was 62

---

Please provide measured rat liver microsome (RLM), % parent remaining for the entries that follow.
- method-notes: Liver microsome stability, rat
- Assay type: in vitro ADME, Sprague Dawley rat
- experimental-setup: after 60 min

Note to self: rat liver microsome (RLM), % parent remaining recorded for Cn1nc(CCCN2CCCC2)c2ccc(N3CCCCCCC3)nc21 [compound 1171] was 0.3 % parent remaining

Note to self: rat liver microsome (RLM), % parent remaining recorded for CCN1CCC(NC(=O)c2nn(C)c3nc(N4CCCCCC4)ccc23)CC1 [EBP1595] was 8 % parent remaining

Note to self: rat liver microsome (RLM), % parent remaining recorded for Cn1nc(C(=O)NC2CCN(CCN3CCCCC3)CC2)c2ccc(N3CCCCCC3)nc21 [compound 1047] was 10 % parent remaining

Note to self: rat liver microsome (RLM), % parent remaining recorded for Cn1nc(C(=O)NC2CCN(CCN3CCCC3)CC2)c2ccc(N3CCCCCC3)nc21 [EBP1597] was 15 % parent remaining

Note to self: rat liver microsome (RLM), % parent remaining recorded for Cn1nc(C(=O)NC2CCN(CCN3CCCCC3)CC2)c2ccc(N3CCCCCC3)nc21 [EBP1047] was 10 % parent remaining

Note to self: rat liver microsome (RLM), % parent remaining recorded for Cn1nc(C(=O)NC2CCNCC2)c2ccc(N3CCCCCC3)nc21.O=C(O)C(F)(F)F.O=C(O)C(F)(F)F [compound 697] was 13 % parent remaining

Note to self: rat liver microsome (RLM), % parent remaining recorded for CC1CCCCN1CCOCc1nn(C)c2nc(N3CCCCCC3)ccc12 (centres unmarked) [compound 1549] was 17 % parent remaining

Note to self: rat liver microsome (RLM), % parent remaining recorded for Cn1nc(CCCN2CCCCC2CO)c2ccc(N3CCCCCCC3)nc21 (centres unmarked) [compound 1456] was 0.2 % parent remaining

Note to self: rat liver microsome (RLM), % parent remaining recorded for Cn1nc(C(=O)NC2CCN(CCN3CCCCC3CO)CC2)c2ccc(N3CCCCCC3)nc21 (centres unmarked) [compound 1559] was 8 % parent remaining

Note to self: rat liver microsome (RLM), % parent remaining recorded for CC1CCCN1CCCc1nn(C)c2nc(N3CCCCCCC3)ccc12 (centres unmarked) [compound 1452] was 0.5 % parent remaining

Note to self: rat liver microsome (RLM), % parent remaining recorded for CC(C)N1CCC(NC(=O)c2nn(C)c3nc(N4CCCCCC4)ccc23)CC1 [EBP1604] was 14 % parent remaining

Note to self: rat liver microsome (RLM), % parent remaining recorded for Cn1nc(C(=O)NC2CCN(CCN3CCCC3)CC2)c2ccc(N3CCCCCC3)nc21 [compound 1597] was 14 % parent remaining

Note to self: rat liver microsome (RLM), % parent remaining recorded for CCN1CCC(NC(=O)c2nn(C)c3nc(N4CCCCCC4)ccc23)CC1 [compound 1595] was 8 % parent remaining

Note to self: rat liver microsome (RLM), % parent remaining recorded for CC1CCC(C)N1CCOCc1nn(C)c2nc(N3CCCCCC3)ccc12 (centres unmarked) [compound 1540] was 4 % parent remaining

Cited source: patent US20120232062A1
